// data source = patent US20230135152A1

The following molecules are listed with their measured pEC50 values.
- Tgt: PIKFYVE (Homo sapiens, UniProt Q9Y2I7)
- Sequence (Q9Y2I7 whole entry): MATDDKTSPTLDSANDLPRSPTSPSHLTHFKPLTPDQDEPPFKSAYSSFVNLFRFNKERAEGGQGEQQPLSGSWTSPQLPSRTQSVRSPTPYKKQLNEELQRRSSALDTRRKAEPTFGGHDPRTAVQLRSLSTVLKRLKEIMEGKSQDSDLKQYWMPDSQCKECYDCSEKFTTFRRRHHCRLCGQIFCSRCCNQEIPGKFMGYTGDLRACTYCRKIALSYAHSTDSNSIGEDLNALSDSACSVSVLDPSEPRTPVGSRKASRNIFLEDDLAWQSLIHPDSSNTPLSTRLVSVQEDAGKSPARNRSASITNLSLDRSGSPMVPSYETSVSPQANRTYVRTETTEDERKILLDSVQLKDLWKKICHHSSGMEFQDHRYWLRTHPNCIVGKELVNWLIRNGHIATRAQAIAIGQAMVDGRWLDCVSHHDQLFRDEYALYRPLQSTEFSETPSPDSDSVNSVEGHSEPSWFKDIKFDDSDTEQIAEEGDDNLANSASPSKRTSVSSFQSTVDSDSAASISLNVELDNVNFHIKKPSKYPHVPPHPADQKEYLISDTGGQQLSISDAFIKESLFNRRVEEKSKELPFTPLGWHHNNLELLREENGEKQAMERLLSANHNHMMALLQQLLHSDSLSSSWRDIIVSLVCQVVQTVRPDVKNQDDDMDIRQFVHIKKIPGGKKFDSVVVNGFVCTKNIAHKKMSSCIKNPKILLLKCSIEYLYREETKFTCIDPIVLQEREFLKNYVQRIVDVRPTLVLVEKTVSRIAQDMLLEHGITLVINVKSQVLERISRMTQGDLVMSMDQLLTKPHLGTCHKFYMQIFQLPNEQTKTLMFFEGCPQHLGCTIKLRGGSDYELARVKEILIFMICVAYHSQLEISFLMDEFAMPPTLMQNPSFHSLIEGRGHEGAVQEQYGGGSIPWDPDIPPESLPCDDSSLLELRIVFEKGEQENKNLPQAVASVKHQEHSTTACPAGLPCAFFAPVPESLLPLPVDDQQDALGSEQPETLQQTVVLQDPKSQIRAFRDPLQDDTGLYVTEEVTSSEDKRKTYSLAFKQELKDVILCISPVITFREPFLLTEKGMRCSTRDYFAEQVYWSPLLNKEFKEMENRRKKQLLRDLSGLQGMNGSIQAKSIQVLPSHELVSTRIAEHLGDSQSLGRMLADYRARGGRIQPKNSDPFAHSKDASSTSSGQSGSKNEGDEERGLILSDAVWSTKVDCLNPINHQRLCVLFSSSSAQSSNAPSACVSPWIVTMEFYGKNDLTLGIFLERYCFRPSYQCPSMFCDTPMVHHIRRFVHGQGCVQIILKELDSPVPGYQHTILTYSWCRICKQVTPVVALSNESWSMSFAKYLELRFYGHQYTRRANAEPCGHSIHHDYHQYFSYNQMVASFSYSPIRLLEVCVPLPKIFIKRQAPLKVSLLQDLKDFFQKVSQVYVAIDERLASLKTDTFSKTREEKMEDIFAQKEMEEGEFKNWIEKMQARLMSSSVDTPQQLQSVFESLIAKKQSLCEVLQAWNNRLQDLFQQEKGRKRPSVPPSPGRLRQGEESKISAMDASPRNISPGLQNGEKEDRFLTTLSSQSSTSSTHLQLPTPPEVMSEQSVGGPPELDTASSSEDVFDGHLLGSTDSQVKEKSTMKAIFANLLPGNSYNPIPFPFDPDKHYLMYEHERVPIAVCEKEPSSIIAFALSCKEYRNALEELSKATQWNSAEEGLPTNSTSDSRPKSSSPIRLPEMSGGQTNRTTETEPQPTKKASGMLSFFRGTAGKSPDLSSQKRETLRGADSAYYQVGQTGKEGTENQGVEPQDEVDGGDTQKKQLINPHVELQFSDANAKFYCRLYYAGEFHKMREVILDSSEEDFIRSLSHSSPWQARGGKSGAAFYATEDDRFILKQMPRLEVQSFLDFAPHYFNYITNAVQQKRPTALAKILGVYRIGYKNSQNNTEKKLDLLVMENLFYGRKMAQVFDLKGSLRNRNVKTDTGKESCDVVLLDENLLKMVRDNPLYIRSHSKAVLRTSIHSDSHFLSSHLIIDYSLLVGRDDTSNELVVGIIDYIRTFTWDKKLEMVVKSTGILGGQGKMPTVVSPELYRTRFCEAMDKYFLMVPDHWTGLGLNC
- Measurement Protocol: Cell-based Pikfyve inhibition activity assay (EEA1 staining, mean vesicle size in BJ fibroblast cells)
- Applied Conditions: Table 4, 4 hours treatment, 3 μM Apilimod = 100% inhibition
pEC50: −log10 of the molar value.
Measurement Kind: pEC50

* Cc1cccc(-c2ccn(-c3cc(N4CCOCC4)c4[nH]cc(C)c4n3)n2)c1 | 5.30 to 6.30
* COCc1cc(-c2ccccc2)n(-c2cc(N3CCOCC3)nc(OCCc3cnn(C)c3)n2)n1 | 5.30 to 6.30
* COC(CO)(c1ccccc1)c1nc(N2CCOCC2)cc(-n2ccc(-c3cccc(C)c3)n2)n1 (stereo not drawn) [Compound 228] | 6.30 to 7.00
* CNc1nc(N2CCOCC2)cc(-n2nc(-c3ccccc3)cc2C)n1 | 5.30 to 6.30
* Cn1cc(CCOc2nc(N3CCOCC3)cc(-n3ccc(COc4ccccc4)n3)n2)cn1 | 5.30 to 6.30
* C[C@@H](O)c1cccc(-c2ccn(-c3cc(N4CCOCC4)nc(OCCc4cnn(C)c4)n3)n2)c1 (single isomer, unassigned) | > 7.70
* Cn1cc(CCOc2nc(N3CCOCC3)cc(-n3ccc(OCc4ccccc4)n3)n2)cn1 | 7.00 to 7.70
* COc1nc(N2CCOCC2)c(C)c(-n2ccc(-c3cccc(C)c3)n2)n1 | < 5.30
* Cc1cccc(-c2ccn(-c3cc(N4CCOCC4)nc(COCc4cn(C)cn4)n3)n2)c1 | 6.30 to 7.00
* Cn1cc(CCOc2nc(N3CCOCC3)cc(-n3ccc(OCc4ccccc4F)n3)n2)cn1 | 6.30 to 7.00
* Cc1cccc(-c2ccn(-c3cc(N4CCOCC4)nc(OCCCc4ccco4)n3)n2)c1 | 5.30 to 6.30
* CO[C@H](CO)c1nc(N2CCOCC2)cc(-n2nc(-c3ccccc3)cc2C)n1 (single isomer, unassigned) | 5.30 to 6.30
